- assay-target: Platelet glycoprotein 4 (Mus musculus) (UniProt Q08857)
- Sequence (Q08857 whole entry): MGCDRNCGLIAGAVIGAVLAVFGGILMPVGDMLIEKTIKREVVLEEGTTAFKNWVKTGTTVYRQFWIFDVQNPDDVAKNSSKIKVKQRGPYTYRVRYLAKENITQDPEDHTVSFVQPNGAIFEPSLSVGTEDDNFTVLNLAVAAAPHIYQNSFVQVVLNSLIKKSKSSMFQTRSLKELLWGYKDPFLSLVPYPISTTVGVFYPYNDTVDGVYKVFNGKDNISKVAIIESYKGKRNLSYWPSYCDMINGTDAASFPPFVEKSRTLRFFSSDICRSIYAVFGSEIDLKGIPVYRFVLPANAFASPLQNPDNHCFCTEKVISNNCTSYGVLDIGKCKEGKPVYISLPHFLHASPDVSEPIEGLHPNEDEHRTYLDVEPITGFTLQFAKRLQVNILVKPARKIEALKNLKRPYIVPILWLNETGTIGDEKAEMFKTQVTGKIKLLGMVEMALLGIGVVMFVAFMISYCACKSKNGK
- measurement-protocol: Modulation of CD36 in mouse J774A.1 cells assessed as inhibition of R-FSL1-induced NO over production at 1 uM preincubated for 1 hr followed by overnight R-FSL1 stimulation by DAN-fluorescence assay relative to control
- Format: cell-based
Calls of active or inactive are those of the source. The calls are words filed in the database; no cut-off is given here. Starred links: 1 amine or outer side, 2 acyl side, 3 side chain; linkers in the order of their positions; H or OH if unused. Non-standard residues stand in square brackets, D forms with d. Residues, ends and D or L forms follow the SMILES beside them. azaPhe = O=C(N(Cc1ccccc1)N[*:1])[*:2]
Returns: one label drawn from yes (active), no (inactive)

Solved entries:
compound | assay-target | class-assignment
C[C@H](NC(=O)[C@@H](Cc1c[nH]c2ccccc12)NC(=O)[C@@H](N)Cc1cnc[nH]1)C(=O)NN(Cc1ccccc1)C(=O)N[C@H](Cc1ccccc1)C(=O)N[C@@H](CCCCN)C(N)=O (H-H[dW]A[azaPhe][dF]K-NH2) | Platelet glycoprotein 4 (Mus musculus) (UniProt Q08857) | no
C[C@H](NC(=O)[C@@H](Cc1c[nH]c2ccccc12)NC(=O)[C@@H](N)Cc1cnc[nH]1)C(=O)NN(Cc1c(F)cc(F)cc1F)C(=O)N[C@H](Cc1ccccc1)C(=O)N[C@@H](CCCCN)C(N)=O | Platelet glycoprotein 4 (Mus musculus) (UniProt Q08857) | no
C[C@H](NC(=O)[C@@H](Cc1c[nH]c2ccccc12)NC(=O)[C@@H](N)Cc1cnc[nH]1)C(=O)NN(Cc1c[nH]nn1)C(=O)N[C@H](Cc1ccccc1)C(=O)N[C@@H](CCCCN)C(N)=O | Platelet glycoprotein 4 (Mus musculus) (UniProt Q08857) | no
CCCOc1ccc(CN(NC(=O)[C@H](C)NC(=O)[C@@H](Cc2c[nH]c3ccccc23)NC(=O)[C@@H](N)Cc2cnc[nH]2)C(=O)N[C@H](Cc2ccccc2)C(=O)N[C@@H](CCCCN)C(N)=O)cc1 | Platelet glycoprotein 4 (Mus musculus) (UniProt Q08857) | yes

Then there is this compound:
What was the test verdict on C[C@H](N)C(=O)N[C@H](Cc1c[nH]c2ccccc12)C(=O)N[C@@H](C)C(=O)NN(Cc1ccccc1)C(=O)N[C@H](Cc1ccccc1)C(=O)N[C@@H](CCCCN)C(N)=O (H-A[dW]A[azaPhe][dF]K-NH2) ?
yes

====

- assay-target: UniProt:Q08857
- measurement-protocol: Modulation of CD36 in mouse J774A.1 cells assessed as inhibition of R-FSL1-induced NO over production at 1 uM preincubated for 1 hr followed by overnight R-FSL1 stimulation by DAN-fluorescence assay relative to control
- Type: cell-based
Activity calls are given as the source filed them. No cut-off for these calls is given here. Starred links: 1 amine or outer side, 2 acyl side, 3 side chain; linkers in the order of their positions; H or OH if unused. Non-standard residues stand in square brackets, D forms with d. Residues, ends and D or L forms follow the SMILES beside them. azaTyr = O=C(N(Cc1ccc(O)cc1)N[*:1])[*:2]
A correct response names exactly one class from active, inactive

compound | assay-target | class-assignment
C[C@H](NC(=O)[C@@H](Cc1c[nH]c2ccccc12)NC(=O)[C@@H](N)Cc1cnc[nH]1)C(=O)NN(Cc1ccc([N+](=O)[O-])cc1)C(=O)N[C@H](Cc1ccccc1)C(=O)N[C@@H](CCCCN)C(N)=O | UniProt:Q08857 | inactive
COc1ccc(CN(NC(=O)[C@H](C)NC(=O)[C@@H](Cc2c[nH]c3ccccc23)NC(=O)[C@@H](N)Cc2cnc[nH]2)C(=O)N[C@H](Cc2ccccc2)C(=O)N[C@@H](CCCCN)C(N)=O)cc1 | UniProt:Q08857 | active
CC(C)Oc1ccc(CN(NC(=O)[C@H](C)NC(=O)[C@@H](Cc2c[nH]c3ccccc23)NC(=O)[C@@H](N)Cc2cnc[nH]2)C(=O)N[C@H](Cc2ccccc2)C(=O)N[C@@H](CCCCN)C(N)=O)cc1 | UniProt:Q08857 | inactive
COc1cc(Cl)c(CN(NC(=O)[C@H](C)NC(=O)[C@@H](Cc2c[nH]c3ccccc23)NC(=O)[C@@H](N)Cc2cnc[nH]2)C(=O)N[C@H](Cc2ccccc2)C(=O)N[C@@H](CCCCN)C(N)=O)c(Cl)c1 | UniProt:Q08857 | inactive
C[C@H](NC(=O)[C@@H](Cc1c[nH]c2ccccc12)NC(=O)[C@@H](N)Cc1cnc[nH]1)C(=O)NN(CCCCCN)C(=O)N[C@H](Cc1ccccc1)C(=O)N[C@@H](CCCCN)C(N)=O | UniProt:Q08857 | inactive
C[C@H](N)C(=O)N[C@H](Cc1c[nH]c2ccccc12)C(=O)N[C@@H](C)C(=O)NN(Cc1ccc(C(F)(F)F)cc1)C(=O)N[C@H](Cc1ccccc1)C(=O)N[C@@H](CCCCN)C(N)=O | UniProt:Q08857 | inactive

Test call, this compound: C[C@H](N)C(=O)N[C@H](Cc1c[nH]c2ccccc12)C(=O)N[C@@H](C)C(=O)NN(Cc1ccc([N+](=O)[O-])cc1)C(=O)N[C@H](Cc1ccccc1)C(=O)N[C@@H](CCCCN)C(N)=O
active

Recorded test call requested for Cc1cccc(C)c1CN(NC(=O)[C@H](C)NC(=O)[C@@H](Cc1c[nH]c2ccccc12)NC(=O)[C@@H](N)Cc1cnc[nH]1)C(=O)N[C@H](Cc1ccccc1)C(=O)N[C@@H](CCCCN)C(N)=O
active

What did this assay record as the result for C[C@H](NC(=O)[C@@H](Cc1c[nH]c2ccccc12)NC(=O)[C@@H](N)Cc1cnc[nH]1)C(=O)NN(Cc1cccc(O)c1)C(=O)N[C@H](Cc1ccccc1)C(=O)N[C@@H](CCCCN)C(N)=O ?
inactive

Tell me the assay call for C[C@H](NC(=O)[C@@H](Cc1c[nH]c2ccccc12)NC(=O)[C@@H](N)Cc1cnc[nH]1)C(=O)NN(Cc1ccc(O)cc1)C(=O)N[C@H](Cc1ccccc1)C(=O)N[C@@H](CCCCN)C(N)=O (H-H[dW]A[azaTyr][dF]K-NH2) please.
inactive

====

- assay-target: Platelet glycoprotein 4 (Mus musculus)
- measurement-protocol: Modulation of CD36 in mouse […] cells assessed as inhibition of R-FSL1-induced NO over production at 1 uM preincubated for 1 hr followed by overnight R-FSL1 stimulation by DAN-fluorescence assay relative to control
- Type: cell-based
Calls of active or inactive are those of the source. The calls are words filed in the database; no cut-off is given here. Starred links: 1 amine or outer side, 2 acyl side, 3 side chain; linkers in the order of their positions; H or OH if unused. Non-standard residues stand in square brackets, D forms with d. Residues, ends and D or L forms follow the SMILES beside them. azaPhe = O=C(N(Cc1ccccc1)N[*:1])[*:2]
Result category, one only: active, inactive

Example cases with answers are listed next.
compound | class-assignment
C[C@H](N)C(=O)N[C@H](Cc1c[nH]c2ccccc12)C(=O)N[C@@H](C)C(=O)NN(Cc1ccc(I)cc1)C(=O)N[C@H](Cc1ccccc1)C(=O)N[C@@H](CCCCN)C(N)=O | inactive
CC(C)Oc1ccc(CN(NC(=O)[C@H](C)NC(=O)[C@@H](Cc2c[nH]c3ccccc23)NC(=O)[C@@H](N)Cc2cnc[nH]2)C(=O)N[C@H](Cc2ccccc2)C(=O)N[C@@H](CCCCN)C(N)=O)cc1 | inactive
C[C@H](N)C(=O)N[C@H](Cc1c[nH]c2ccccc12)C(=O)N[C@@H](C)C(=O)NN(Cc1ccc([N+](=O)[O-])cc1)C(=O)N[C@H](Cc1ccccc1)C(=O)N[C@@H](CCCCN)C(N)=O | active
C[C@H](NC(=O)[C@@H](Cc1c[nH]c2ccccc12)NC(=O)[C@@H](N)Cc1cnc[nH]1)C(=O)NN(Cc1c(F)cc(F)cc1F)C(=O)N[C@H](Cc1ccccc1)C(=O)N[C@@H](CCCCN)C(N)=O | inactive
C[C@H](N)C(=O)N[C@H](Cc1c[nH]c2ccccc12)C(=O)N[C@@H](C)C(=O)NN(Cc1ccccc1)C(=O)N[C@H](Cc1ccccc1)C(=O)N[C@@H](CCCCN)C(N)=O (H-A[dW]A[azaPhe][dF]K-NH2) | active
Cc1cc(F)cc(C)c1CN(NC(=O)[C@H](C)NC(=O)[C@@H](Cc1c[nH]c2ccccc12)NC(=O)[C@@H](N)Cc1cnc[nH]1)C(=O)N[C@H](Cc1ccccc1)C(=O)N[C@@H](CCCCN)C(N)=O | active
COc1cc(Cl)c(CN(NC(=O)[C@H](C)NC(=O)[C@@H](Cc2c[nH]c3ccccc23)NC(=O)[C@@H](N)Cc2cnc[nH]2)C(=O)N[C@H](Cc2ccccc2)C(=O)N[C@@H](CCCCN)C(N)=O)c(Cl)c1 | inactive
COc1ccc(CN(NC(=O)[C@H](C)NC(=O)[C@@H](Cc2c[nH]c3ccccc23)NC(=O)[C@H](C)N)C(=O)N[C@H](Cc2ccccc2)C(=O)N[C@@H](CCCCN)C(N)=O)cc1 | active

Kindly provide the recorded test outcome for the following compound: C[C@H](NC(=O)[C@@H](Cc1c[nH]c2ccccc12)NC(=O)[C@@H](N)Cc1cnc[nH]1)C(=O)NN(Cc1ccc(I)cc1)C(=O)N[C@H](Cc1ccccc1)C(=O)N[C@@H](CCCCN)C(N)=O
inactive

Test call, this compound: Cc1cccc(C)c1CN(NC(=O)[C@H](C)NC(=O)[C@@H](Cc1c[nH]c2ccccc12)NC(=O)[C@@H](N)Cc1cnc[nH]1)C(=O)N[C@H](Cc1ccccc1)C(=O)N[C@@H](CCCCN)C(N)=O
active

// param item: C[C@H](NC(=O)[C@@H](Cc1c[nH]c2ccccc12)NC(=O)[C@@H](N)Cc1cnc[nH]1)C(=O)NN(CCCCCN)C(=O)N[C@H](Cc1ccccc1)C(=O)N[C@@H](CCCCN)C(N)=O ; yields the recorded call
inactive

Hi, sorry to bother you, what did the test record for C[C@H](NC(=O)[C@@H](Cc1c[nH]c2ccccc12)NC(=O)[C@@H](N)Cc1cnc[nH]1)C(=O)NN(Cc1ccc([N+](=O)[O-])cc1)C(=O)N[C@H](Cc1ccccc1)C(=O)N[C@@H](CCCCN)C(N)=O ?
inactive

Check the results log: what was the call for C[C@H](NC(=O)[C@@H](Cc1c[nH]c2ccccc12)NC(=O)[C@@H](N)Cc1cnc[nH]1)C(=O)NN(Cc1c[nH]nn1)C(=O)N[C@H](Cc1ccccc1)C(=O)N[C@@H](CCCCN)C(N)=O ?
inactive

Each compound tested received a call. Report the one for C[C@H](NC(=O)[C@@H](Cc1c[nH]c2ccccc12)NC(=O)[C@@H](N)Cc1cnc[nH]1)C(=O)NN(Cc1cccc(O)c1)C(=O)N[C@H](Cc1ccccc1)C(=O)N[C@@H](CCCCN)C(N)=O .
inactive

Tell me the assay call for C[C@H](NC(=O)[C@@H](Cc1c[nH]c2ccccc12)NC(=O)[C@@H](N)Cc1cnc[nH]1)C(=O)NN(Cc1ccc(F)cc1)C(=O)N[C@H](Cc1ccccc1)C(=O)N[C@@H](CCCCN)C(N)=O please.
active

# outcome recorded in this test, key = C[C@H](N)C(=O)N[C@H](Cc1c[nH]c2ccccc12)C(=O)N[C@@H](C)C(=O)NN(Cc1ccc(C(F)(F)F)cc1)C(=O)N[C@H](Cc1ccccc1)C(=O)N[C@@H](CCCCN)C(N)=O
inactive

Which outcome was assigned to C[C@H](NC(=O)[C@@H](Cc1c[nH]c2ccccc12)NC(=O)[C@@H](N)Cc1cnc[nH]1)C(=O)NN(Cc1ccc(C(F)(F)F)cc1)C(=O)N[C@H](Cc1ccccc1)C(=O)N[C@@H](CCCCN)C(N)=O in this test?
inactive

Hey, what did the test say about COc1cc(Cl)cc(Cl)c1CN(NC(=O)[C@H](C)NC(=O)[C@@H](Cc1c[nH]c2ccccc12)NC(=O)[C@@H](N)Cc1cnc[nH]1)C(=O)N[C@H](Cc1ccccc1)C(=O)N[C@@H](CCCCN)C(N)=O ?
inactive

Assay result, entry C[C@H](NC(=O)[C@@H](Cc1c[nH]c2ccccc12)NC(=O)[C@@H](N)Cc1cnc[nH]1)C(=O)NN(Cc1ccc(Cl)cc1)C(=O)N[C@H](Cc1ccccc1)C(=O)N[C@@H](CCCCN)C(N)=O — outcome?
active
